# System: Saccharomyces cerevisiae
# measurement.notes: protein stability index of tFT-peptide fusion (C-terminal peptide) (PSI (0-1 scale)); higher = more stable (slower turnover)
# condition: genetic background: das1 deletion; temperature: 37 C

{"primary.sequence": "FLLCRVFVLLRS", "protein stability index": 0.215}
{"primary.sequence": "WVCCFVWGCLIR", "protein stability index": 0.353}
{"primary.sequence": "GVQFSVKWVKLG", "protein stability index": 0.734}
{"primary.sequence": "PSIALVRLDVIC", "protein stability index": 0.46}
{"primary.sequence": "YWGFHPCCAFGY", "protein stability index": 0.77}

----------
# protein stability index per entry
# Test system: Saccharomyces cerevisiae
# measurement.notes: protein stability index of tFT-peptide fusion (C-terminal peptide) (PSI (0-1 scale)); higher = more stable (slower turnover)
# condition: genetic background: wild type; temperature: 30 C
measurement.name: protein stability index

{"primary.sequence": "EGGDLEYQHVKI [YCR043C C-terminal 12 aa]", "reported.measurement": 0.682}
{"primary.sequence": "FDTSAQSDRKHS [DCV1 C-terminal 12 aa]", "reported.measurement": 0.692}
{"primary.sequence": "NFTIHRPLNNGR [YDL062W C-terminal 12 aa]", "reported.measurement": 0.734}
{"primary.sequence": "DILLSCIADLTI [POL2 C-terminal 12 aa]", "reported.measurement": 0.707}
{"primary.sequence": "RSHKCYPHDVRF [NAT3 C-terminal 12 aa]", "reported.measurement": 0.662}
{"primary.sequence": "LIDLCCSCAGGM [MNC1 C-terminal 12 aa]", "reported.measurement": 0.643}
